# assay-procedure: PSAC antagonists in infected red cells, primary screen, cell-based, P. falciparum Indochina, OD700, 2 h (AID 1155);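 note: lysis reports solute entry through the parasite surface anion channel PSAC; channel blockers reduce lysis of infected cells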
# settings: P. falciparum Indochina infected erythrocytes, osmotic lysis OD700, called active from +8 up or from −8 down
The source made the active and inactive calls.
Reply using exactly one outcome from label 1 = active, label 0 = inactive

## Input Status in this test for `C=CCOC(=O)[C@@H]1[C@H]2C(=O)O[C@H](c3ccccc3)[C@H](c3ccccc3)N2[C@H](c2ccc(OCCOC(=O)[C@@H]3C[C@@H]4C(=O)N[C@@H](Cc5ccccc5)C(=O)N4[C@@H]3c3ccc(O)cc3)cc2)[C@@]12C(=O)Nc1ccc(I)cc12` ?
## Output label 0

## Input Status in this test for CC(C)(C)OC(=O)CC[C@@]1(C(=O)NCC(O)CO)N=C(c2ccc(OCCCO)cc2)O[C@@H]1c1ccccc1N=[N+]=[N-] (stereo partly drawn) ?
## Output label 1

## Input Status in this test for `CC(C)(C)C(=O)N[C@@H](c1ccc(Cl)cc1)[C@]1(C)C[C@H]1C1CCCCC1` ?
## Output label 0

====

# measurement-target: Homeobox protein Hox-A13 (Mus musculus)
# assay-procedure: inhibitors of HoxA13-DNA binding, primary screen, biochemical, fluorescence polarization, labeled oligonucleotide (AID 1185)
# settings: 15 min, higher = more signal, called active from +8 up or from −8 down
# z-score per record follows
I'd appreciate a reply containing only the number, no unit.

Take a look at these entries with their results.
# compound, observed-value
rows = [
    ("C=CCNC(=O)[C@H]1[C@@H]2C(=O)O[C@@H](c3ccccc3)[C@@H](c3ccccc3)N2[C@@H](c2ccc(OCCO)cc2)[C@]12C(=O)N(C(=O)OCCOC)c1ccccc12", -4.21),
    ("COC(=O)C(CC#Cc1ccc2c(c1)[C@]1(C(=O)N2)[C@H](C(=O)O)[C@H]2C(=O)O[C@H](c3ccccc3)[C@H](c3ccccc3)N2[C@@H]1c1ccc(O)cc1)C(=O)OC", -6.07),
    ("CC(C)C[C@@H]1NC(=O)[C@H]2C[C@@H](C(=O)NCCCCCCN(C)C)[C@@H](c3ccc(O)cc3)N2C1=O", -1.57),
    ("COC(=O)[C@@]1(Cc2ccccc2)[C@H]2c3cc(C(=O)N4CCCC4)n(Cc4nc5ccccc5[nH]4)c3C[C@H]2CN1C(=O)c1ccccc1", -3.97),
    ("CCCCCN1CC=CC23O[C@@H]4/C=C\\CCCOC(=O)C4[C@H]2C(=O)N(CCCO)[C@@H]3C1=O (some centres undefined)", -5.09),
    ("C#CCN(CC1=CCCCC1)[C@H](c1ccccc1Br)[C@@H](O)Cc1ccccc1", -0.843),
]

## Input Entry CCCCN1CC=CC23O[C@@H]4C=CCOC(=O)[C@@H]4[C@H]2C(=O)N(CCCCCO)[C@@H]3C1=O (some centres undefined) : reported z-score = ?
## Output -3.39

====

# assay-procedure: adipocyte viability effects, profiling panel, cell-based, 3T3-L1 adipocytes, calcein-AM fluorescence, 48 h, basal (AID 1163); note: test concentration not given here
# settings: 3T3-L1 adipocytes viability, higher = more signal
Response field label takes yes when z-score is strictly below 0.3 and no in all other cases.

# molecule, label
rows = [
    ("C=CCC(OC(C)=O)[C@@H]1[C@@H](N(Cc2ccc(-c3cccc(C(F)(F)F)c3)o2)C(=O)Cc2ccc(F)cc2)c2cc(OCCCO)ccc2N1C(=O)Cc1ccc(OC)cc1 (some centres not stated)", "no"),
    ("CO[C@H]1O[C@H](CO)[C@@H](OC(=O)Nc2ccc(Br)cc2)[C@H](OC(=O)c2cc3ccccc3[nH]2)[C@H]1OC(=O)c1cc2ccccc2[nH]1", "yes"),
    ("NCCCCCNC(=O)[C@@H]1C[C@@H]2C(=O)NCC(=O)N2[C@@H]1c1ccc(O)cc1", "yes"),
    ("CCOC(=O)[C@H]1CC=C2CC1C(=O)N1CCC[C@@H]1[C@@H]2O[Si](C)(C)C(C)(C)C (some centres not stated)", "no"),
    ("CCCCC(O)C1C=CC2C(=O)N(c3ccccc3)C(=O)C2N1Nc1ccccc1F (configuration not stated)", "yes"),
    ("CC1CC/C=C\\[C@H]2OC34C=CCN(Cn5nnc6ccccc65)C(=O)[C@H]3N(C(CO)C(C)C)C(=O)[C@@H]4C2C(=O)O1 (some centres not stated)", "yes"),
]

Proceed to the following item.
## Input Is z-score of CCCCCN1CC=CC23O[C@@H]4/C=C\CCCOC(=O)C4[C@H]2C(=O)N(C(CO)C(C)C)[C@@H]3C1=O (some centres not stated) strictly below 0.3?
## Output no

====

# composite z-score per record follows
# assay-procedure: small-molecule binders of probe aNOTCH2, primary screen, biochemical, small-molecule microarray, 635/667 nm fluorescence (AID 1121);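 note: score merges feature fluorescence read at 667 nm with its signal to noise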
# settings: higher = more signal

Take a look at these entries with their results.
# compound, composite z-score
records = [
    ("C=C(COC)/C(=C/C[C@@H](OC(C)=O)c1ccc(OCCO)cc1)c1cc(C(=O)OC)ccc1OC", -0.118),
    ("COc1ccc([Si](C)(C)[C@H]2[C@H](CCO)O[C@@]3(C(=O)N(Cc4ccc(N5C(=O)COc6ccccc65)cc4)c4ccccc43)[C@@H]2C)cc1", -0.176),
    ("[N-]=[N+]=Nc1ccccc1[C@H]1OC(c2ccc(OCCCO)cc2)=N[C@@]1(Cc1ccccc1)C(=O)O", -0.146),
]

## Input Entry `CC(C)C[C@@H]1NC(=O)[C@H]2C[C@@H](C(=O)NCCCCCCN(C)C)[C@@H](c3ccc(O)cc3)N2C1=O` : reported composite z-score = ?
## Output -0.112

## Input Entry `COc1ccc([Si](C)(C)[C@H]2[C@H](CCn3cc([C@H](O)c4ccccc4)nn3)O[C@@]3(C(=O)N(Cc4cccc(N5CCOC5=O)c4)c4ccccc43)[C@@H]2C)cc1` : reported composite z-score = ?
## Output -0.301

## Input Entry `COCCOC(=O)N1C(=O)[C@@]2(c3cc(C#CCCO)ccc31)[C@H](C(=O)Nc1nc3ccccc3s1)[C@H]1C(=O)O[C@H](c3ccccc3)[C@H](c3ccccc3)N1[C@@H]2c1ccc(OCCO)cc1` : reported composite z-score = ?
## Output -0.0028

## Input Entry CCOC(=O)[C@H]1CC=C2CC1C(=O)N1CCC[C@@H]1[C@@H]2O[Si](C)(C)C(C)(C)C (some centres not stated) : reported composite z-score = ?
## Output -0.161

====

# assay-procedure: E. coli acrAB mutant growth effects, primary screen, E. coli filamentation inducers, strain DRC39, OD650, 48 h (AID 1179);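 note: screen aims at cell division blockers that make cells filament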
# settings: E. coli DRC39 delta-acrAB growth, higher = more signal, called active from +8 up or from −8 down
# binarize z-score: threshold 0.1 inclusive, high side true, low side false

Before answering, review these 5 worked examples.
# compound, label
data = [
    ("COCCOC(=O)N1C(=O)[C@@]2(c3cc(C#CC4=CCCCC4)ccc31)[C@H](C(=O)Nc1nc3ccccc3s1)[C@H]1C(=O)O[C@H](c3ccccc3)[C@H](c3ccccc3)N1[C@@H]2c1ccc(OCCO)cc1", "false"),
    ("O=C1O[C@H](c2ccccc2)[C@H](c2ccccc2)N2[C@H]1[C@@H](C(=O)O)[C@]1(C(=O)Nc3ccc(C#CC4=CCCCC4)cc31)[C@H]2c1ccccc1OCCO", "false"),
    ("OC([C@@H]1CC(c2ccccc2)=NO1)[C@H]1CC(c2ccccc2)=NO1 (stereo partly specified)", "true"),
    ("CO[C@H]1O[C@H](CO)[C@@H](OC(=O)Nc2ccc(Br)cc2)[C@H](OC(=O)c2cc3ccccc3[nH]2)[C@H]1OC(=O)c1cc2ccccc2[nH]1", "true"),
    ("CC(C)N1C(=O)c2ccccc2[C@](C)(C(=O)NCc2ccccc2)[C@@H]1c1ccc(CO)cc1", "false"),
]

Proceed to the following item.
## Input Please tell me: is the compound `C=CCNC(=O)[C@H]1[C@@H]2C(=O)O[C@@H](c3ccccc3)[C@@H](c3ccccc3)N2[C@@H](c2ccc(OCCO)cc2)[C@]12C(=O)N(C(=O)OCCOC)c1ccccc12` at or over 0.1 in terms of z-score?
## Output false

====

# Test system: Plasmodium falciparum Sir2 (PF13_0152, Sir2A)
# assay-procedure: pfSir2 binders on small-molecule microarrays, primary screen, biochemical, small-molecule microarray, 635 nm fluorescence (AID 1098);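 note: score merges spot fluorescence intensity with its signal-to-noise ratio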
# settings: small-molecule microarray binding, fluorescence 635 nm; higher = more signal
# composite z-score per record follows

Take a look at these entries with their results.
# compound, observed-value
records = [
    ("C[C@@]1([C@@H](NC(=O)c2ccccc2)c2ccc(-c3ccccc3)cc2)C[C@H]1C1CCCCC1", -0.443),
    ("COC(=O)c1c(CC[C@@H](CO)NC(=O)N[C@@H](C)Cn2cc(C3(O)CCCCC3)nn2)oc(C(C)=O)c1C(=O)OC", 1.35),
    ("CN1C(=O)C2C=CC(C(O)C3=C[C@H]4C[C@@H](C3)C4(C)C)N(Nc3ccccc3)C2C1=O (stereo not given in full)", 0.46),
    ("COC(=O)C(CC#Cc1ccc2c(c1)[C@]1(C(=O)N2)[C@H](C(=O)O)[C@H]2C(=O)O[C@H](c3ccccc3)[C@H](c3ccccc3)N2[C@@H]1c1ccc(O)cc1)C(=O)OC", 0.472),
]

## Input Entry `CCOC(=O)[C@H]1C/C=C/C[C@H](C(=O)OCC)C(=O)O[C@H]2[C@@H](OC)O[C@H](CO)[C@@H](OC(=O)Nc3ccc(C#N)cc3)[C@@H]2OC1=O` : reported composite z-score = ?
## Output 0.859

## Input Entry `CN(C)CCCNC(=O)[C@@]1(c2ccc([N+](=O)[O-])cc2)CC(=O)N(C2CCCCC2)[C@@H]1c1ccc(CO)cc1` : reported composite z-score = ?
## Output 0.762

## Input Entry `C#CCN(CC=C(C)C)[C@H](CO)c1ccccc1` : reported composite z-score = ?
## Output -0.383

## Input Entry O=C1NC(=O)C2C1C=CC(C(O)c1cccc3ccccc13)N2Nc1ccccn1 (stereo not given) : reported composite z-score = ?
## Output 0.621

## Input Entry `C=C(COC)/C(=C/C[C@@H](OC(C)=O)c1ccc(CO)o1)c1cnc2ccccc2c1` : reported composite z-score = ?
## Output 0.974

## Input Entry CC(C)c1ccc(NN2C(C(O)C(c3ccccc3)c3ccccc3)C=CC3C(=O)N(c4ccccc4)C(=O)C32)cc1 (stereo not given) : reported composite z-score = ?
## Output 1.08

## Input Entry `C=CC[C@]12N=C(c3ccc(OCCCO)cc3)O[C@H]1c1ccccc1N(Cc1ccccc1)C2=O` : reported composite z-score = ?
## Output 1.28

## Input Entry `CCOC(=O)C[C@H]1[C@H](OC(=O)Cc2ccc3c(c2)OCO3)[C@@H](NC(=O)c2ccc(-c3ccccc3)cc2)c2cc(OCCCO)ccc2N1C(=O)Cc1ccc(OC)cc1` : reported composite z-score = ?
## Output 0.489

## Input Entry `C=CCNC(=O)[C@H]1[C@@H]2C(=O)O[C@@H](c3ccccc3)[C@@H](c3ccccc3)N2[C@@H](c2ccc(OCCO)cc2)[C@]12C(=O)N(C(=O)OCCOC)c1ccccc12` : reported composite z-score = ?
## Output 1.57

## Input Entry [N-]=[N+]=NCc1ccccc1C[C@]1(C(=O)NCC(O)CO)N=C(c2ccc(OCCCO)cc2)O[C@H]1c1ccccc1 (stereo not given in full) : reported composite z-score = ?
## Output -0.338

## Input Entry `NC(=O)[C@@H]1[C@H]2C(=O)O[C@H](c3ccccc3)[C@H](c3ccccc3)N2[C@H](c2ccc(O)cc2)[C@@]12C(=O)Nc1ccc(C#CC3(O)CCCCCC3)cc12` : reported composite z-score = ?
## Output 0.61

Entry source: PubChem BioAssay
